The measured values listed here are drawn from patent US8829011B2.

target.or.test.system: human recombinant 5-HT2A receptor (Homo sapiens, UniProt P28223)
Sequence (P28223 whole entry): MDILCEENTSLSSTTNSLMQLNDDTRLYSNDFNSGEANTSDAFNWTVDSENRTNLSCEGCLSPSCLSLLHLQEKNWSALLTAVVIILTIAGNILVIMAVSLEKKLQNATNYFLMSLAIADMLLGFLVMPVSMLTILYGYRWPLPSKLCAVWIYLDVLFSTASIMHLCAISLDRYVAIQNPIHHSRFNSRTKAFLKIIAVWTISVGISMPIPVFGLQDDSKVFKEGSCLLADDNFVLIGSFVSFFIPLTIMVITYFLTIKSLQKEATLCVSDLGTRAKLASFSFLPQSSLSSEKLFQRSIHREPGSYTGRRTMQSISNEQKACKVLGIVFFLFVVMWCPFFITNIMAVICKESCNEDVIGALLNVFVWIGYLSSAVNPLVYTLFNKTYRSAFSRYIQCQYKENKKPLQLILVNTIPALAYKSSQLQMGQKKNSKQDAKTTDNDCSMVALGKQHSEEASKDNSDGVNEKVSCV
assay.details: Affinity for 5-HT2A receptor binding sites (competitive radioligand binding, [3H]ketanserin)
experimental.conditions: membranes of NIH3T3 with h5-HT2A, * = tested as hydrochloride salt
Where a name gives a salt, the structure may show the parent alone.
Record form. Attribute: Ki. Fill in for each entry.
The reply should read as a number followed by its unit.

Enquiry: Tell me Ki of CCN(CC)c1nc2c(c(-c3ccc(C#N)cc3)n1)CCNCC2 [Example 14, hydrochloride] when tested on human recombinant 5-HT2A receptor (Homo sapiens, UniProt P28223).
Return: 40 nM

Enquiry: State, for human recombinant 5-HT2A receptor (Homo sapiens, UniProt P28223), measured Ki of the compound listed here: CCN(C)c1nc2c(c(-c3ccc(F)cc3)n1)CNCC2 [Example 44, hydrochloride]
Return: 9.5 nM

Enquiry: Report Ki under test system human recombinant 5-HT2A receptor (Homo sapiens, UniProt P28223) for Cc1ccc(-c2nc(N3CCC(F)CC3)nc3c2CCNCC3)cc1Cl .
Return: 38 nM

Enquiry: // fetch Ki for C[C@@H]1CCC[C@H](C)N1c1nc2c(c(-c3ccc(Cl)c(Cl)c3)n1)CCNCC2 ; system: human recombinant 5-HT2A receptor (Homo sapiens, UniProt P28223)
Return: 170 nM

Enquiry: Specify the recorded Ki for FC1CCN(c2nc3c(c(-c4ccc(Cl)cc4)n2)CCNCC3)CC1 , system: human recombinant 5-HT2A receptor (Homo sapiens, UniProt P28223).
Return: 19 nM

Enquiry: State, for human recombinant 5-HT2A receptor (Homo sapiens, UniProt P28223), measured Ki of the compound listed here: Clc1ccc(-c2nc(NCc3ccccc3)nc3c2CNCCC3)cc1
Return: 50 nM

Enquiry: Provide the reported Ki (system: human recombinant 5-HT2A receptor (Homo sapiens, UniProt P28223)) for CC1CCCCN1c1nc2c(c(-c3ccc(C#N)cc3)n1)CCCNC2 (stereo not drawn)
Return: 400 nM

Enquiry: Look up and report Ki, with human recombinant 5-HT2A receptor (Homo sapiens, UniProt P28223) as system, for C[C@H]1COCCN1c1nc2c(c(-c3cc4ccccc4o3)n1)CCNCC2
Return: 99 nM

Enquiry: Find the measured Ki of CCN(CC)c1nc2c(c(-c3ccc(F)cc3)n1)CCNC2 with human recombinant 5-HT2A receptor (Homo sapiens, UniProt P28223) as test system.
Return: 3 nM

----------
target.or.test.system: human recombinant 5-HT2C receptor (Homo sapiens)
Sequence (P28335 33-458): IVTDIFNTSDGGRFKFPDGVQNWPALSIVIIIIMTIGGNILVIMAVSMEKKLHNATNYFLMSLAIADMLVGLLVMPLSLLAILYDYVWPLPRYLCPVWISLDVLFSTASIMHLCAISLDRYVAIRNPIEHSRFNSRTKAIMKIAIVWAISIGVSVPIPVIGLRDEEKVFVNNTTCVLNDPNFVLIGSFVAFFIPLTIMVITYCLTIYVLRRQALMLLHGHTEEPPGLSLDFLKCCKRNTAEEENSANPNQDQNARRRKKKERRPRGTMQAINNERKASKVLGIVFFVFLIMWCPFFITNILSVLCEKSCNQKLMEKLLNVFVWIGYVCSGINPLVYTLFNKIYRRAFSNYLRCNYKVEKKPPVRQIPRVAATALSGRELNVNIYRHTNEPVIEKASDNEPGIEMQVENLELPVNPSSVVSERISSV
assay.details: Affinity for 5-HT2C receptor binding sites (competitive radioligand binding, [3H]mesulergine)
experimental.conditions: membranes of CHO with h5-HT2C, * = tested as hydrochloride salt
Where a name gives a salt, the structure may show the parent alone.
The label True is reserved for Ki strictly under 600 nM; False covers values equal to or above it.

Enquiry: Regarding CCN(CC)c1nc2c(c(-c3ccc(OC)cc3)n1)CCNC2 [Example 28] , kindly confirm whether its Ki is beneath 600 nM.
Return: True

Enquiry: Identify whether the compound COc1ccc(-c2nc(N3CCCC3C)nc3c2CCNCC3)cc1 (stereo not drawn) [Example 80] records Ki below 600 nM.
Return: True

Enquiry: I'd appreciate it if you could check whether CCN(CC)c1nc2c(c(-c3ccc(C)cc3)n1)CNCCC2 [Example 16] has Ki smaller than 600 nM.
Return: False

Enquiry: Is Ki of N#Cc1ccc(-c2nc(N3CCCCCC3)nc3c2CCN(Cc2ccccc2)C3)cc1 [Example 37] strictly below 600 nM?
Return: False

Enquiry: Please indicate whether the reported Ki of Cc1ccc(-c2nc(N(C)C)nc3c2CNCC3)cc1 [Example 61] is strictly below 600 nM.
Return: False

Enquiry: Does the reported Ki of Cc1ccc(-c2nc(N3[C@H](C)CCC[C@@H]3C)nc3c2CCNCC3)cc1 [Example 71] stay below 600 nM?
Return: True

Enquiry: Quick check: does N#Cc1ccc(-c2nc(N3CCCCC3)nc3c2CNCCC3)cc1 [Example 22, hydrochloride] have Ki under 600 nM?
Return: False

Enquiry: is_below(Ki, 600 nM) for CC1CCCCN1c1nc2c(c(-c3ccc(C#N)cc3)n1)CCCNC2 (stereo not drawn) [Example 7] ?
Return: False

Enquiry: Hello, I'm reviewing records and need to know if Ki of CCNc1nc2c(c(-c3ccc(C)cc3)n1)CNCC2 [Example 48] is below 600 nM. Could you check?
Return: False

----------
Field: pKi. Provide a value for each of the molecules that follow.
target.or.test.system: human recombinant 5-HT2C receptor (Homo sapiens, UniProt P28335)
Sequence (P28335 33-458): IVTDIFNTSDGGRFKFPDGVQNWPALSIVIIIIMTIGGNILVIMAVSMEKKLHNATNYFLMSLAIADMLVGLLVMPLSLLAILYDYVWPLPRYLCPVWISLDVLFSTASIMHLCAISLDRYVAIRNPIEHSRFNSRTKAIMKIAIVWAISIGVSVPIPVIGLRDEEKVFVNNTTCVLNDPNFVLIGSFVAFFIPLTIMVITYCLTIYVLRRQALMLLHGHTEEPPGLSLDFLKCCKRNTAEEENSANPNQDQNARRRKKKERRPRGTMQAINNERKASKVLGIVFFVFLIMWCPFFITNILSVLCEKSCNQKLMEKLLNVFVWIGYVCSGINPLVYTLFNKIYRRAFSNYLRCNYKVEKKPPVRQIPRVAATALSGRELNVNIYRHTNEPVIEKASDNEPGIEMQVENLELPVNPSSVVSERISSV
assay.details: Affinity for 5-HT2C receptor binding sites (competitive radioligand binding, [3H]mesulergine)
experimental.conditions: membranes of CHO with h5-HT2C, * = tested as hydrochloride salt
Protocol: Stock drug solutions (10 mM) were prepared in DMSO (the final assay concentration of DMSO not exceeding 0.4%). Drug dilutions were prepared in assay buffer. […] Receptor binding was performed using the human recombinant 5-HT2A (GB: X57830), 5-HT2B (GB: Z36748) and 5-HT2C (GB: M81778) receptors. The affinity of the compounds for the 3 different human 5-HT2 receptor subtypes was evaluated by competitive radioligand binding assays using [^3H]ketanserin (h5-HT2A) or [^3H]mesulergine (h5-HT2B and h5-HT2C). […]
Where a name gives a salt, the structure may show the parent alone.
Recall that pKi is obtained by taking minus log10 of the concentration measured in molar.

Enquiry: Jot down pKi (human recombinant 5-HT2C receptor (Homo sapiens, UniProt P28335)) of CCN(CC)c1nc2c(c(-c3ccc(OC)cc3)n1)CCCNC2 .
Return: 6.40

Enquiry: Report its pKi with human recombinant 5-HT2C receptor (Homo sapiens, UniProt P28335) as the test system: CCN(CC)c1nc2c(c(-c3ccc(OC)cc3)n1)CCNCC2 [Example 13, hydrochloride]
Return: 7.40

Enquiry: Enter measured pKi, system human recombinant 5-HT2C receptor (Homo sapiens, UniProt P28335), for the molecule shown: C[C@@H]1CCC[C@H](C)N1c1nc2c(c(-c3ccc(Cl)cc3)n1)CCNCC2
Return: 7.92

Enquiry: Jot down pKi (human recombinant 5-HT2C receptor (Homo sapiens, UniProt P28335)) of Cc1ccc(-c2nc(N3[C@H](C)CCC[C@@H]3C)nc3c2CCNCC3)cn1 .
Return: 6.62

Enquiry: Enter pKi (test system human recombinant 5-HT2C receptor (Homo sapiens, UniProt P28335)) for C[C@H]1COCCN1c1nc2c(c(-c3cc4ccccc4o3)n1)CCNCC2
Return: 6.85

Enquiry: Specify pKi for Clc1ccc(-c2nc(NCc3ccccc3)nc3c2CNCCC3)cc1 , system human recombinant 5-HT2C receptor (Homo sapiens, UniProt P28335).
Return: 5.96

----------
target.or.test.system: human recombinant 5-HT2A receptor (Homo sapiens, UniProt P28223)
assay.details: Affinity for 5-HT2A receptor binding sites (competitive radioligand binding, [3H]ketanserin)
experimental.conditions: membranes of NIH3T3 with h5-HT2A, * = tested as hydrochloride salt
Counter-ions that a name gives are not always drawn.
reported.metric: Ki (nM)
State just the number; it will be interpreted in nM.

Enquiry: Read off the recorded Ki for C[C@@H]1CCC[C@H](C)N1c1nc2c(c(-c3ccc(F)c(F)c3)n1)CCNCC2
Return: 131

Enquiry: For CCN(CC)c1nc2c(c(-c3ccc(C)cc3)n1)CCNCC2 [Example 11, hydrochloride] , write its Ki.
Return: 4

Enquiry: Indicate its recorded Ki; the compound in question is CCN(CC)c1nc2c(c(-c3ccc(Cl)cc3)n1)CNCC2 [Example 46, hydrochloride]
Return: 30

Enquiry: Recall and state the measured Ki for Fc1ccc(-c2nc(N3CCCCCC3)nc3c2CCN(Cc2ccccc2)C3)cc1 .
Return: 230

Enquiry: Respond only with Ki recorded for Cc1ccc(-c2nc(N3CCCCC3)nc3c2CNCCC3)cc1
Return: 1500

Enquiry: Quick one: give measured Ki for CCN(CC)c1nc2c(c(-c3ccc(OC)cc3)n1)CCNCC2 [Example 13, hydrochloride]
Return: 10

Enquiry: Fill in Ki for record CCN(CC)c1nc2c(c(-c3ccc(F)cc3)n1)CCN(Cc1ccccc1)C2
Return: 60

Enquiry: Given the compound Cc1ccc(-c2nc(N3CCS(=O)(=O)CC3)nc3c2CCNCC3)cc1 , write its reported Ki.
Return: 520

Enquiry: // Input: Fc1ccc(-c2nc(N3CCCCCC3)nc3c2CCNC3)cc1 . Output its Ki only.
Return: 9

Enquiry: Write down Ki measured for item Cc1ccc(-c2nc(N3[C@H](C)CCC[C@@H]3C)nc3c2CCNCC3)cc1
Return: 36

Enquiry: Supply Ki value. Item: CCN(CC)c1nc2c(c(-c3ccc(C#N)cc3)n1)CCCNC2
Return: 240

Enquiry: Complete the entry with Ki for COc1ccc(-c2nc(N3CCCC3C)nc3c2CCNCC3)cc1Cl (stereo not drawn)
Return: 61

Enquiry: For CCN(CC)c1nc2c(c(-c3ccc(F)cc3)n1)CCNCC2 [Example 9, hydrochloride] , write its Ki.
Return: 20

Enquiry: Indicate its recorded Ki; the compound in question is N#Cc1ccc(-c2nc(N3CCCCCC3)nc3c2CCN(Cc2ccccc2)C3)cc1
Return: 2400

Enquiry: Using the record for Cc1ccc(-c2nc(N3CCCC3C)nc3c2CCNCC3)cc1Cl (stereo not drawn) , state its measured Ki.
Return: 77

Enquiry: State its Ki for this compound: CC1CCCN1c1nc2c(c(-c3ccc(Cl)cc3)n1)CNCCC2 (stereo not drawn)
Return: 2000

Enquiry: Give Ki for CCN(CC)c1nc2c(c(-c3ccc(C#N)cc3)n1)CCNC2
Return: 48

Enquiry: Tell me Ki reported for Cc1ccc(-c2nc(N3CCCCC3)nc3c2CCNCC3)cc1
Return: 2
